test system: SK-MEL-28 melanoma; assay: NCI-60 one-dose screen, 48 h; settings: 10 µM
Compounds without any hit were thinned out: in the full panel of roughly 83,000, 20% have a hit. Active and inactive are the calls of the source. The calls were made as follows: active = growth percent below 10; inactive = the rest.
Allowed answers: active, inactive

Query: # fetch the recorded call for `N#Cc1ccc(-c2nn(-c3ccc(C(=O)O)cc3)cc2CNc2cccc(Br)c2)cc1` here
Reply: inactive

Query: # fetch the recorded call for `N#Cc1c(NC(=O)c2ccc(C(F)(F)F)cc2)sc2c1CCC(=O)C2` here
Reply: active

Query: # fetch the recorded call for `CN1CCc2c(sc3ncnc(N/N=C/c4cn(-c5ccccc5)nc4-c4ccc(Br)cc4)c23)C1` here
Reply: inactive

Query: # fetch the recorded call for `COc1ccc(CN2[C@H](C(=O)NCc3ccc(C(=O)NO)cc3)Cc3c([nH]c4ccccc34)[C@H]2C2CC2)cc1` here
Reply: inactive

Query: # fetch the recorded call for `CO[C@@H]1CSS[C@H]1Cn1nc(-c2ccc(Oc3ccccc3)cc2)c2c(N)ncnc21` here
Reply: active

* * *

system: KM12 colon; test: NCI-60 one-dose screen, 48 h (100 = growth as untreated, 0 = no growth, -100 = all killed); details: 10 µM
About 83,000 compounds went through this panel and 20% of them were active in at least one assay; those are over-represented in the sample as a whole.
Parameter threshold = 70%. Response is satisfied when growth meets or exceeds it, else not satisfied.

Query: Can `O=c1[nH]c2ccccc2cc1CSc1ccc(Nc2nccc(-c3ccc(C(F)(F)F)cc3)n2)cc1` be said to have growth at or above 70%?
Reply: not satisfied

Query: Can `O=C(O)CCCCCCCCCCN1C(=O)/C(=C/c2cnc(-c3ccc(Cl)cc3)s2)SC1=S` be said to have growth at or above 70%?
Reply: not satisfied

Query: Can `Cc1ccn2c(C(=O)c3ccccc3)cc(-c3cc(-c4ccc(N(C)C)cc4)c(C#N)c(N)n3)c2c1` be said to have growth at or above 70%?
Reply: satisfied

Query: Can `CCCCCCCCCCCCCCCCCCCC(=O)NCCc1c[nH]c2ccc(O)cc12` be said to have growth at or above 70%?
Reply: satisfied

Query: Can `COc1cc2c3c(n(CCCNCCO)c(=O)c2cc1OC)-c1nc2c(cc1C3=O)OCO2` be said to have growth at or above 70%?
Reply: not satisfied

* * *

test system: HCC-2998 colon; experiment: NCI-60 one-dose screen, 48 h; conditions: 10 µM
The panel holds about 83,000 compounds, 20% with a hit somewhere; the sample as a whole holds those more often. The source made the active and inactive calls. Rule for the calls: active = growth percent below 10; inactive = the rest.
Allowed answers: active, inactive

Query: # fetch the recorded call for CC(=O)NS(=O)(=O)c1ccc(NC(=O)CSC2=NC(c3ccccc3)C(C(C)=O)=C(C)N2)cc1 (configuration not stated) here
Reply: inactive

Query: # fetch the recorded call for `CONC[C@]1(C)C=C2C(=O)[C@](C)(O)C3(CC3)C(C)=C2[C@H]1O` here
Reply: active

Query: # fetch the recorded call for `Cc1ccc(NC(=O)c2ccc(-n3c(=O)[nH]c4ccccc4c3=O)cc2)cc1` here
Reply: inactive

Query: # fetch the recorded call for `CO[C@@H]1CSS[C@H]1Cn1nc(-c2ccc(Oc3ccccc3)cc2)c2c(N)ncnc21` here
Reply: inactive

Query: # fetch the recorded call for `Cc1ccn2c(C(=O)c3ccccc3)cc(-c3cc(-c4ccc(N(C)C)cc4)c(C#N)c(N)n3)c2c1` here
Reply: inactive

Query: # fetch the recorded call for `CNC(=O)c1cccc(N2CCc3c2ccc(NC(=O)Nc2ccc(N4CCN(C)CC4)c(C(F)(F)F)c2)c3F)c1` here
Reply: active

Query: # fetch the recorded call for `COc1ccc(-c2cc(-c3cc(C(=O)c4ccccc4)n4ccc(C)cc34)nc(N)c2C#N)cc1` here
Reply: inactive

Query: # fetch the recorded call for `O=C(Nc1cccc(C(F)(F)F)c1)c1cncc(C#Cc2cnc3cccnn23)c1` here
Reply: inactive

Query: # fetch the recorded call for `O=C(N/N=C/c1ccc(B(O)O)o1)c1[nH]c2ccc(Br)cc2c1-c1ccccc1` here
Reply: active

Query: # fetch the recorded call for COc1cc(C2CC(c3ccccc3)=Nc3c(N)nc(N)nc3N2)ccc1Oc1nc(Nc2ccc(F)cc2)nc(N(C)C)n1 (configuration not stated) here
Reply: inactive

Query: # fetch the recorded call for `COc1cc2c3c(n(CCCNC(C)C)c(=O)c2cc1OC)-c1nc2c(cc1C3=O)OCO2` here
Reply: inactive

Query: # fetch the recorded call for `O=C(CS(=O)(=O)c1oc(-c2ccc(Cl)cc2)nc1S(=O)(=O)c1ccc(Cl)cc1)N1CCOCC1` here
Reply: inactive

Query: # fetch the recorded call for `CCN(CC)CCOc1ccc(C(=C(C)c2ccccc2)c2ccc(OCCN(CC)CC)cc2)cc1` here
Reply: active

Query: # fetch the recorded call for `N#Cc1ccc(-c2nn(-c3ccc(C(=O)O)cc3)cc2CNc2ccc(Cl)cc2)cc1` here
Reply: inactive

Query: # fetch the recorded call for `COc1ccc(C(=O)/C=C/c2cc(C(F)(F)F)cc(C(F)(F)F)c2)cc1S(N)(=O)=O` here
Reply: active

Query: # fetch the recorded call for C=C1CCC2C3(C)COC(c4ccccc4F)OC3CCC2(C)C1C/C=C1/C(=O)OCC1O (configuration not stated) here
Reply: active

Query: # fetch the recorded call for `CCOc1ccc(Nc2nc3ccccc3nc2Nc2ccc(OCC)cc2)cc1` here
Reply: inactive

Query: # fetch the recorded call for `Cc1ccc(/C(CSc2nnc(-c3c[nH]c4ccccc34)n2-c2ccccc2)=N/O)cc1` here
Reply: active

Query: # fetch the recorded call for `COc1ccc2[nH]c(O)c(N=NC(=O)c3cc(-c4ccc(C)cc4)nc4ccccc34)c2c1` here
Reply: inactive

Query: # fetch the recorded call for `CCNCCCn1c2c(c3cc(OC)c(OC)cc3c1=O)C(=O)c1cc3c(nc1-2)OCO3` here
Reply: inactive

Query: # fetch the recorded call for `COc1cccc(COc2ccc(/C=C3\Oc4cc(O)ccc4C3=O)cc2)c1` here
Reply: inactive

Query: # fetch the recorded call for `COc1ccc(C(=O)NC(=S)N2CCN(c3ncnc4c3cnn4-c3ccccc3)CC2)cc1` here
Reply: inactive

Query: # fetch the recorded call for `COc1cccc(-c2nn(-c3ccccc3)cc2-c2ccnc(NCCCNC(=O)Nc3ccc(F)cc3)c2)c1` here
Reply: active

Query: # fetch the recorded call for `CN1CCCN(Cc2ccc(C(=O)Nc3cccc(Nc4ccc5c(O)cccc5n4)c3)cc2C(F)(F)F)CC1` here
Reply: active

Query: # fetch the recorded call for `O=C(Nc1ccc(OCc2ccccc2)cc1)Nc1ccc(Cl)c(C(F)(F)F)c1` here
Reply: inactive

Query: # fetch the recorded call for `CCCCCCCCCCCCCCCCCCCC(=O)NCCc1c[nH]c2ccc(OC(=O)NOCCOCCOCCOCCOCCOCCOCCOCCOCCOCCOCCOCCOCCOCCOCCOCCOCCOCCOCCOCCOCCOCCOC)cc12` here
Reply: active

Query: # fetch the recorded call for `Cn1cc(-c2cc(N)n3nc(-c4c[nH]c5ccc(Br)cc45)cc3n2)c2cc(Br)cnc21` here
Reply: active

Query: # fetch the recorded call for O=C(c1ccc(O)cc1)C1[C@H](c2ccccc2Br)[C@@H](c2ccccc2)NC12C(=O)Nc1ccc(Br)cc12 (some centres not stated) here
Reply: active

Query: # fetch the recorded call for `CC(=O)Nc1ccc(-n2cnc3cc(-c4ccc(O)cc4)ccc32)cc1C` here
Reply: inactive

Query: # fetch the recorded call for `COc1ccc(-c2c(N)c(=O)n(C)c3ccccc23)cc1` here
Reply: inactive

Query: # fetch the recorded call for `Nc1nc2c(F)c(F)c(F)c(F)c2s1` here
Reply: inactive

Query: # fetch the recorded call for `O=c1oc2ccccc2cc1-c1csc(N=Nc2c(O)[nH]c3ccc(Br)cc23)n1` here
Reply: inactive

Query: # fetch the recorded call for `COc1ccsc1/C=N/NC(=O)c1[nH]c2ccc(Br)cc2c1-c1ccccc1` here
Reply: active

Query: # fetch the recorded call for `OCCCNc1oc(-c2ccccc2)nc1[P+](c1ccccc1)(c1ccccc1)c1ccccc1` here
Reply: active

Query: # fetch the recorded call for `Cc1cc(C)cc(Oc2cccc(-c3c(C)nnn3C3CCN(CCN(C)C)CC3)n2)c1` here
Reply: active

Query: # fetch the recorded call for `CC(=O)c1ccc(Nc2nc(SCCC(C)C)nc(-c3ccc(F)cc3)c2C#N)cc1` here
Reply: inactive

Query: # fetch the recorded call for `CCCSc1nc(NC2CC2)c(C#N)c(-c2ccc(OC)cc2)n1` here
Reply: inactive

* * *

system: A549/ATCC NSCLC; assay: NCI-60 one-dose screen, 48 h; conditions: 10 µM
The panel holds about 83,000 compounds, 20% with a hit somewhere; the sample as a whole holds those more often. Activity calls are given as the source filed them. How the source made its calls: active means growth percent below 10; inactive means the rest.
Allowed answers: active, inactive

Query: # fetch the recorded call for `C/C(=N\N=C\c1ccc(Cl)c([N+](=O)[O-])c1)c1ccc2c(c1)Nc1ccccc1S2` here
Reply: inactive

Query: # fetch the recorded call for `O=C(Nc1cccc(-c2cn(-c3ccc4oc(=O)ccc4c3)nn2)c1)Nc1cc(C(F)(F)F)cc(C(F)(F)F)c1` here
Reply: inactive

Query: # fetch the recorded call for `Cc1ccc(CSc2nc(Cl)c(C#N)c(-c3ccc(F)cc3)n2)cc1` here
Reply: inactive

Query: # fetch the recorded call for `O=C1NC(=NC23CC4CC(CC(C4)C2)C3)N/C1=C\c1ccc2ncccc2n1` here
Reply: active

Query: # fetch the recorded call for `Cc1noc2c(Cc3ccccc3)nn(CC(=O)N/N=C/c3ccc(F)cc3)c(=O)c12` here
Reply: inactive

Query: # fetch the recorded call for `O=c1[nH]c2ccccc2cc1CSc1ccc(Nc2nccc(-c3ccc(Cl)cc3)n2)cc1` here
Reply: active

Query: # fetch the recorded call for `CC(=O)Nc1ccc(-n2cnc3cc(-c4ccc(NS(C)(=O)=O)cc4)ccc32)cc1` here
Reply: inactive

Query: # fetch the recorded call for O=C(c1ccc(O)cc1)C1[C@H](c2ccccc2Br)[C@@H](c2ccccc2)NC12C(=O)Nc1ccc(Cl)cc12 (some centres not stated) here
Reply: active

Query: # fetch the recorded call for `CNC(=O)c1cc(-c2ccc(NC(=O)Nc3ccc(C)cc3)cc2)nc2cccnc12` here
Reply: inactive

Query: # fetch the recorded call for O=C(c1ccc(Cl)cc1)C1[C@H](c2ccccc2Br)[C@@H](c2ccccc2)NC12C(=O)Nc1ccc(Br)cc12 (some centres not stated) here
Reply: active

Query: # fetch the recorded call for `COc1ccc(C(=O)Nc2ccc(-c3ccc4c(c3)NC(=O)/C4=C\c3ccc[nH]3)cc2)cc1` here
Reply: inactive

Query: # fetch the recorded call for `Cc1cccc2cc(-c3cc(-c4ccccc4)nc(=S)[nH]3)c(Cl)nc12` here
Reply: inactive

Query: # fetch the recorded call for CC1(c2ccccc2)NC(=O)N(CC(=O)Nc2ccc(C(=O)/C=C/C=C/c3ccccc3)cc2)C1=O (configuration not stated) here
Reply: inactive

Query: # fetch the recorded call for `Cc1noc2c(Cc3ccccc3)nn(CC(=O)N/N=C/c3ccc(Br)cc3)c(=O)c12` here
Reply: inactive

Query: # fetch the recorded call for `COc1cc(/C=C/C(=O)c2ccc(F)cc2)ccc1Oc1nc(Nc2ccc(F)cc2)nc(N(C)C)n1` here
Reply: inactive

Query: # fetch the recorded call for `O=C(NCCCCC(c1ccc(F)cc1)c1ccc(F)cc1)NCCCc1cccnc1` here
Reply: inactive

Query: # fetch the recorded call for `COc1ccc2nc(Nc3cccc(NC(=O)c4ccc(CN5CCN(C)CC5)c(C(F)(F)F)c4)c3)ccc2c1` here
Reply: active

Query: # fetch the recorded call for `O=C1c2ccccc2C(=O)c2c1c(C(=O)c1ccc(Cl)cc1)n1c2ccc2c3ccccc3ccc21` here
Reply: inactive

Query: # fetch the recorded call for `C/C(=N\N=C\c1ccc(N(C)C)cc1)c1ccc2c(c1)Nc1ccccc1S2` here
Reply: inactive

Query: # fetch the recorded call for COc1ccc(/C=C/C(=O)c2ccc(NC(=O)CN3C(=O)NC(C)(c4ccccc4)C3=O)cc2)cc1 (configuration not stated) here
Reply: inactive

Query: # fetch the recorded call for `COc1ccsc1/C=N/NC(=O)c1[nH]c2ccc(Br)cc2c1-c1ccccc1` here
Reply: inactive

Query: # fetch the recorded call for `CN1CCCN(Cc2ccc(C(=O)Nc3cccc(Nc4ccc5c(O)cccc5n4)c3)cc2C(F)(F)F)CC1` here
Reply: active

Query: # fetch the recorded call for `Cn1cc(/C=N/Nc2cccc(Cl)n2)c2ccccc21` here
Reply: inactive

Query: # fetch the recorded call for `Cc1cc(C)nc(NS(=O)(=O)c2ccc(N/C(N)=N/c3nccc(-c4ccccc4)n3)cc2)n1` here
Reply: inactive

Query: # fetch the recorded call for `Cc1ccc(-c2nc(Nc3ccc(S(N)(=O)=O)cc3)c3ccccc3n2)cc1` here
Reply: inactive

Query: # fetch the recorded call for `COC[C@@H](CC(C)C)N=C1N/C(=C\c2ccc3ncsc3c2)C(=O)N1C` here
Reply: inactive

Query: # fetch the recorded call for `Cc1cc(C)nc(/N=C(\N)Nc2ccc(S(=O)(=O)Nc3nc(C)cc(C)n3)cc2)n1` here
Reply: inactive

Query: # fetch the recorded call for `COc1ccc2[nH]c(=O)c(CSc3nccc(-c4ccc(Cl)cc4)n3)cc2c1` here
Reply: active

Query: # fetch the recorded call for `Cc1ccc(-c2cc(-c3cc4ccccc4nc3Cl)[nH]c(=S)n2)cc1` here
Reply: inactive

Query: # fetch the recorded call for `CCCCOc1ccc(Nc2nc3ccccc3nc2Nc2ccc(OCCCC)cc2)cc1` here
Reply: inactive

Query: # fetch the recorded call for `O=C(CSc1nnc(-c2ccc3nc(-c4ccccc4)[nH]c3c2)o1)Nc1ccc(Cl)cc1` here
Reply: inactive

Query: # fetch the recorded call for `Cc1ccc(/C=C/C(=O)c2ccc(S(=O)(=O)NCCNc3nc(Nc4ccc(F)cc4)nc(N(C)C)n3)cc2)cc1` here
Reply: inactive

Query: # fetch the recorded call for `Cc1cc2c(c(O)c1Br)-c1ncoc1C(=O)[C@]1(C)CC[C@H](C(C)C)[C@H]21` here
Reply: inactive

Query: # fetch the recorded call for `COc1cc2c(cc1OC)CN(CCCCOc1cc(O)c3c(=O)cc(-c4ccccc4)oc3c1)CC2` here
Reply: inactive

Query: # fetch the recorded call for CCOC(=O)C(Cc1ccccc1)N1C(=O)/C(=C/N2N=C(c3ccc(OC)cc3)CC2c2ccc3ccccc3c2)SC1=S (configuration not stated) here
Reply: inactive

Query: # fetch the recorded call for `COc1cccc(C(N)=Nc2ccc(OCCCCCCn3cncn3)cc2)c1` here
Reply: inactive

Query: # fetch the recorded call for `COc1ccc(-c2ccc(/C=N/NC(=O)c3[nH]c4ccc(Br)cc4c3-c3ccccc3)o2)cc1` here
Reply: inactive
